# Condition Set: in isopropanol, 333.15 K
Collected solubility (mole fraction) values appear next to each entry.
Please respond with just the number, no unit label.

> print(dat)
                            smiles.notation  test.result
1  CNC(=O)c1cc(Oc2ccc(NC(=O)Nc3ccc(Cl)c(C(F)(F)F)c3)cc2)ccn1      0.00325

// below: solubility (mole fraction) requested for another compound
Exam item: Record request: solubility (mole fraction) value, item CNC(=O)c1cc(Oc2ccc(NC(=O)Nc3ccc(Cl)c(C(F)(F)F)c3)cc2)ccn1.Cc1ccc(S(=O)(=O)O)cc1
Marked response: 0.000442

----------
# Condition Set: in n-propanol, 303.15 K
Metric: solubility (mole fraction)
Please respond with just the number, no unit label.

> print(dat)
                            smiles.notation                      metric  test.result
1  CNC(=O)c1cc(Oc2ccc(NC(=O)Nc3ccc(Cl)c(C(F)(F)F)c3)cc2)ccn1.Cc1ccc(S(=O)(=O)O)cc1  solubility (mole fraction)     0.000258

// below: solubility (mole fraction) requested for another compound
Exam item: Record request: solubility (mole fraction) value, item CNC(=O)c1cc(Oc2ccc(NC(=O)Nc3ccc(Cl)c(C(F)(F)F)c3)cc2)ccn1
Marked response: 0.00137

----------
Collected solubility (mole fraction) values appear next to each entry.
# Condition Set: in n-butanol, 313.15 K

> print(dat)
                            smiles.notation  test.result
1  CNC(=O)c1cc(Oc2ccc(NC(=O)Nc3ccc(Cl)c(C(F)(F)F)c3)cc2)ccn1.Cc1ccc(S(=O)(=O)O)cc1     0.000316

Exam item: Record request: solubility (mole fraction) value, item CNC(=O)c1cc(Oc2ccc(NC(=O)Nc3ccc(Cl)c(C(F)(F)F)c3)cc2)ccn1
Marked response: 0.00193

----------
# Condition Set: in n-butanol, 293.15 K
Metric: solubility (mole fraction)

Exam item: Record request: solubility (mole fraction) value, item CNC(=O)c1cc(Oc2ccc(NC(=O)Nc3ccc(Cl)c(C(F)(F)F)c3)cc2)ccn1
Marked response: 0.000816

Exam item: Record request: solubility (mole fraction) value, item CNC(=O)c1cc(Oc2ccc(NC(=O)Nc3ccc(Cl)c(C(F)(F)F)c3)cc2)ccn1.Cc1ccc(S(=O)(=O)O)cc1
Marked response: 0.000163

----------
Collected solubility (mole fraction) values appear next to each entry.
# Condition Set: in isobutanol, 323.15 K

> print(dat)
                            smiles.notation                      metric  test.result
1  CNC(=O)c1cc(Oc2ccc(NC(=O)Nc3ccc(Cl)c(C(F)(F)F)c3)cc2)ccn1  solubility (mole fraction)      0.00155

// below: solubility (mole fraction) requested for another compound
Exam item: Record request: solubility (mole fraction) value, item CNC(=O)c1cc(Oc2ccc(NC(=O)Nc3ccc(Cl)c(C(F)(F)F)c3)cc2)ccn1.Cc1ccc(S(=O)(=O)O)cc1
Marked response: 0.000284

----------
# Condition Set: in isopropanol, 283.15 K
Metric: solubility (mole fraction)
Please respond with just the number, no unit label.

Exam item: Record request: solubility (mole fraction) value, item CNC(=O)c1cc(Oc2ccc(NC(=O)Nc3ccc(Cl)c(C(F)(F)F)c3)cc2)ccn1.Cc1ccc(S(=O)(=O)O)cc1
Marked response: 7.81e-05

Exam item: Record request: solubility (mole fraction) value, item CNC(=O)c1cc(Oc2ccc(NC(=O)Nc3ccc(Cl)c(C(F)(F)F)c3)cc2)ccn1
Marked response: 0.000509

----------
Collected solubility (mole fraction) values appear next to each entry.
# Condition Set: in n-propanol, 323.15 K
Please respond with just the number, no unit label.

> print(dat)
                            smiles.notation  test.result
1  CNC(=O)c1cc(Oc2ccc(NC(=O)Nc3ccc(Cl)c(C(F)(F)F)c3)cc2)ccn1      0.00313

// below: solubility (mole fraction) requested for another compound
Exam item: Record request: solubility (mole fraction) value, item CNC(=O)c1cc(Oc2ccc(NC(=O)Nc3ccc(Cl)c(C(F)(F)F)c3)cc2)ccn1.Cc1ccc(S(=O)(=O)O)cc1
Marked response: 0.000456

----------
Collected solubility (mole fraction) values appear next to each entry.
# Condition Set: in n-pentanol, 313.15 K

> print(dat)
                            smiles.notation                      metric  test.result
1  CNC(=O)c1cc(Oc2ccc(NC(=O)Nc3ccc(Cl)c(C(F)(F)F)c3)cc2)ccn1.Cc1ccc(S(=O)(=O)O)cc1  solubility (mole fraction)     0.000209

Exam item: Record request: solubility (mole fraction) value, item CNC(=O)c1cc(Oc2ccc(NC(=O)Nc3ccc(Cl)c(C(F)(F)F)c3)cc2)ccn1
Marked response: 0.00173

----------
Collected solubility (mole fraction) values appear next to each entry.
# Condition Set: in isopropanol, 293.15 K
Please respond with just the number, no unit label.

Exam item: Record request: solubility (mole fraction) value, item CNC(=O)c1cc(Oc2ccc(NC(=O)Nc3ccc(Cl)c(C(F)(F)F)c3)cc2)ccn1.Cc1ccc(S(=O)(=O)O)cc1
Marked response: 0.000109

Exam item: Record request: solubility (mole fraction) value, item CNC(=O)c1cc(Oc2ccc(NC(=O)Nc3ccc(Cl)c(C(F)(F)F)c3)cc2)ccn1
Marked response: 0.000638

----------
# Condition Set: in n-butanol, 303.15 K
Collected solubility (mole fraction) values appear next to each entry.

> print(dat)
                            smiles.notation                      metric  test.result
1  CNC(=O)c1cc(Oc2ccc(NC(=O)Nc3ccc(Cl)c(C(F)(F)F)c3)cc2)ccn1.Cc1ccc(S(=O)(=O)O)cc1  solubility (mole fraction)     0.000238

Exam item: Record request: solubility (mole fraction) value, item CNC(=O)c1cc(Oc2ccc(NC(=O)Nc3ccc(Cl)c(C(F)(F)F)c3)cc2)ccn1
Marked response: 0.0013

----------
# Condition Set: in n-propanol, 313.15 K
Collected solubility (mole fraction) values appear next to each entry.
Please respond with just the number, no unit label.

> print(dat)
                            smiles.notation  test.result
1  CNC(=O)c1cc(Oc2ccc(NC(=O)Nc3ccc(Cl)c(C(F)(F)F)c3)cc2)ccn1      0.00204

// below: solubility (mole fraction) requested for another compound
Exam item: Record request: solubility (mole fraction) value, item CNC(=O)c1cc(Oc2ccc(NC(=O)Nc3ccc(Cl)c(C(F)(F)F)c3)cc2)ccn1.Cc1ccc(S(=O)(=O)O)cc1
Marked response: 0.000344

----------
# Condition Set: in isobutanol, 313.15 K
Metric: solubility (mole fraction)
Please respond with just the number, no unit label.

> print(dat)
                            smiles.notation  test.result
1  CNC(=O)c1cc(Oc2ccc(NC(=O)Nc3ccc(Cl)c(C(F)(F)F)c3)cc2)ccn1.Cc1ccc(S(=O)(=O)O)cc1     0.000216

// below: solubility (mole fraction) requested for another compound
Exam item: Record request: solubility (mole fraction) value, item CNC(=O)c1cc(Oc2ccc(NC(=O)Nc3ccc(Cl)c(C(F)(F)F)c3)cc2)ccn1
Marked response: 0.00104

----------
# Condition Set: in n-pentanol, 303.15 K
Collected solubility (mole fraction) values appear next to each entry.
Please respond with just the number, no unit label.

> print(dat)
                            smiles.notation  test.result
1  CNC(=O)c1cc(Oc2ccc(NC(=O)Nc3ccc(Cl)c(C(F)(F)F)c3)cc2)ccn1.Cc1ccc(S(=O)(=O)O)cc1     0.000148

// below: solubility (mole fraction) requested for another compound
Exam item: Record request: solubility (mole fraction) value, item CNC(=O)c1cc(Oc2ccc(NC(=O)Nc3ccc(Cl)c(C(F)(F)F)c3)cc2)ccn1
Marked response: 0.00122

----------
# Condition Set: in n-butanol, 323.15 K
Metric: solubility (mole fraction)
Please respond with just the number, no unit label.

> print(dat)
                            smiles.notation                      metric  test.result
1  CNC(=O)c1cc(Oc2ccc(NC(=O)Nc3ccc(Cl)c(C(F)(F)F)c3)cc2)ccn1.Cc1ccc(S(=O)(=O)O)cc1  solubility (mole fraction)     0.000419

// below: solubility (mole fraction) requested for another compound
Exam item: Record request: solubility (mole fraction) value, item CNC(=O)c1cc(Oc2ccc(NC(=O)Nc3ccc(Cl)c(C(F)(F)F)c3)cc2)ccn1
Marked response: 0.00288

----------
Collected solubility (mole fraction) values appear next to each entry.
# Condition Set: in isopropanol, 313.15 K
Please respond with just the number, no unit label.

> print(dat)
                            smiles.notation  test.result
1  CNC(=O)c1cc(Oc2ccc(NC(=O)Nc3ccc(Cl)c(C(F)(F)F)c3)cc2)ccn1.Cc1ccc(S(=O)(=O)O)cc1     0.000229

// below: solubility (mole fraction) requested for another compound
Exam item: Record request: solubility (mole fraction) value, item CNC(=O)c1cc(Oc2ccc(NC(=O)Nc3ccc(Cl)c(C(F)(F)F)c3)cc2)ccn1
Marked response: 0.00152

Value source: BigSolDB 2.1
